ASSAY_OVERVIEW: qHTS assay to identify small molecule agonists of the constitutive androstane receptor (CAR) signaling pathway - cell viability counter screen (AID 1224836); note: nearly all actives have a fitted effect of over 45% in size
MEASUREMENT_CONTEXT: HepG2-CYP2B6-hCAR viability, CellTiter-Fluor, 23 h, PK11195 added to every well; series mostly up to 92.4 µM
Records with an inconclusive call do not appear. Activity calls are given as the source filed them. Calls come from the whole dose curve; as a rule, active = well fitted cell-killing curve with a large enough effect in the repeat runs; inconclusive = weak or mixed curves, or effect the other way; inactive = flat fitted curve, though single readings scatter.
Permitted responses: active, inactive

Known results for compounds:
// query Recorded test outcome, item N#CC(Cl)Cl
// result inactive

// query Lookup CC(C)(c1ccc(O)c(-c2ccccc2)c1)c1ccc(O)c(-c2ccccc2)c1
// result active

// query Query CCOP(=S)(OCC)OC(Cl)C(Cl)(Cl)Cl (stereo unspecified) next
// result inactive

// query Record: Cc1c(Cl)c(=O)oc2cc(OP(=O)(OCCCl)OCCCl)ccc12
// result inactive

// query And then Clc1ccc(C(c2ccccc2Cl)C(Cl)(Cl)Cl)cc1 (stereo unspecified) , what is it?
// result inactive

// query Next compound up: CC1(C)CN=C(NN=C(/C=C/c2ccc(C(F)(F)F)cc2)/C=C/c2ccc(C(F)(F)F)cc2)NC1
// result active

// query What about COP(=O)(OC)SCn1c(=O)oc2cc(Cl)cnc21 ?
// result active

// query Now consider Cc1cc(Cl)ccc1O[C@H](C)C(=O)O .
// result inactive

Continuing:
// query # fetch the recorded call for O=S(=O)(c1ccc(Cl)cc1)c1ccc(Cl)cc1 here
// result inactive

// query Thanks! And CC(C)OS(C)(=O)=O ?
// result inactive

// query Try this compound too: c1ccc(Nc2ccc3ccccc3c2)cc1
// result inactive

// query Now the same for CCCN(CC)CC1COC2(CCC(C(C)(C)C)CC2)O1 (stereo unspecified)
// result inactive

// query Similarly, ClC1=C(Cl)[C@]2(Cl)[C@@H]3[C@@H]4C[C@@H]([C@H]5O[C@@H]45)[C@@H]3[C@@]1(Cl)C2(Cl)Cl ?
// result inactive

// query Let us now turn to Cl/C=C\CCl
// result inactive

// query Entry O=C(Cl)c1ccc(Cl)cc1 please
// result inactive

// query Also, c1cc[c]([Sb]([c]2ccccc2)[c]2ccccc2)cc1 please.
// result inactive
